Method description: Human HepG2 cell viability assay in 384 well format
Format: toxicity, cell-based
Design: dose 125 nL, time 70.5 hour; concentration not given beside the values
Condition summary: HepG2 cells, read-out: Inhibition
Each record here notes measured cytotoxicity at 70.5 h.
Entry rule: numbers only, all in %.

Specify measured cytotoxicity at 70.5 h for COc1ccc2c(c1)CC(C(=O)N(C)Cc1noc3c1CCCC3)CO2 (stereo not drawn) . -4.86

Specify measured cytotoxicity at 70.5 h for Cc1nc2c(c(NCc3ccccc3)n1)CCN(C(=O)NC(C)C)CC2 . 30.7

Specify measured cytotoxicity at 70.5 h for Cc1nc(C)c(C(=O)N2CCc3ccc(F)cc3C2C)o1 (stereo not drawn) . -0.841

Specify measured cytotoxicity at 70.5 h for COCc1nc(C(=O)NS(=O)(=O)c2ccc(F)c(F)c2)cs1 . -6.1

Specify measured cytotoxicity at 70.5 h for CCCNC(=O)CCc1ccnc2ccccc12 . -14

---
Specify measured cytotoxicity at 70.5 h for Cn1c(CN2CCCC2)nnc1C1CCCN(C(=O)N2CCOCC2)C1 (stereo not drawn) . -3.17

----------
Each record here notes measured cytotoxicity at 70.5 h.
Method description: Human HepG2 cell viability assay in 384 well format
Format: toxicity, cell-based
Design: dose 125 nL, time 70.5 hour; concentration not given beside the values
Condition summary: HepG2 cells, read-out: Inhibition
Entry rule: numbers only, all in %.

Specify measured cytotoxicity at 70.5 h for CCO[C@@H]1CO[C@@]2(CCCN(C(=O)c3ccc(OC)c(F)c3)C2)C1 . 9.35

Specify measured cytotoxicity at 70.5 h for CCN1CCN(C(=O)c2ccc(OC)nn2)c2ccccc21 . -0.876

Specify measured cytotoxicity at 70.5 h for CC(C)(C)c1nc(NS(=O)(=O)c2ccc(F)cc2)no1 . -17.2

Specify measured cytotoxicity at 70.5 h for CC(C)(C)OCCN(Cc1cccc(O)c1)C1CCC(O)CC1 (configuration not stated) . -3.74

Specify measured cytotoxicity at 70.5 h for COc1cccc2cc(CNCc3ccnc(N(C)C)c3)oc12 . 7.6

Specify measured cytotoxicity at 70.5 h for CSc1cc2c(cc1NC(=O)NCc1ccncc1)OCCO2 . 2.15

Specify measured cytotoxicity at 70.5 h for CN(C)c1ccc(CC2COCCN(Cc3nccn3C)C2)nn1 (configuration not stated) . -0.733

Specify measured cytotoxicity at 70.5 h for CC(C)c1nccn1C(C)C(=O)NC1Cc2ccccc2C1 (configuration not stated) . -1.16

Specify measured cytotoxicity at 70.5 h for CNC(=O)C1(CCCc2ccncc2)CCCCN1 (configuration not stated) . 15.5

Specify measured cytotoxicity at 70.5 h for CC(C)CCn1cc(C(=O)NC2CCS(=O)(=O)C2)c2ccccc2c1=O (configuration not stated) . -12.4

---
Specify measured cytotoxicity at 70.5 h for O=S(=O)(NCc1ccccc1)Nc1ccc(-n2cncn2)cc1 . -5.87

Specify measured cytotoxicity at 70.5 h for Cc1nc(CN(C)C(=O)c2cccc(CC3CCNCC3)c2)no1 . 26.4

----------
Each record here notes measured cytotoxicity at 70.5 h.
Method description: Human HepG2 cell viability assay in 384 well format
Assay type: toxicity, cell-based
Parameters: dose 125 nL, time 70.5 hour; concentration not given beside the values
Condition summary: HepG2 cells, read-out: Inhibition
Entry rule: numbers only, all in %.

Reference set, count: 5
Specify measured cytotoxicity at 70.5 h for O=C(NC1CCC(C(=O)N2CCSCC2)CC1)N1CCOCC1 (stereo unspecified) . -5.82

Specify measured cytotoxicity at 70.5 h for CC(OCC(F)(F)F)C(=O)NCc1ccc(-n2cncn2)nc1 (stereo unspecified) . -12.1

Specify measured cytotoxicity at 70.5 h for CCN1CC(C(=O)N2CC(Oc3ccccc3Cl)C2)CC1=O (stereo unspecified) . -1.71

Specify measured cytotoxicity at 70.5 h for COCC(=O)NC1CCCN(c2ccc(C)cc2)C1=O (stereo unspecified) . -0.459

Specify measured cytotoxicity at 70.5 h for COc1ccc(CCC(=O)N2CCN(c3nc(C)ns3)CC2)cc1 . -0.82

# input for lookup
Specify measured cytotoxicity at 70.5 h for CCC(=O)NCC(CC)Oc1cccc(F)c1 (stereo unspecified) . -3.64
